# SYSTEM: furin, P09958;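 also: purified furin at 1:10 enzyme:substrate in 50 mM HEPES pH 7.5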
# Sequence (P09958 whole entry): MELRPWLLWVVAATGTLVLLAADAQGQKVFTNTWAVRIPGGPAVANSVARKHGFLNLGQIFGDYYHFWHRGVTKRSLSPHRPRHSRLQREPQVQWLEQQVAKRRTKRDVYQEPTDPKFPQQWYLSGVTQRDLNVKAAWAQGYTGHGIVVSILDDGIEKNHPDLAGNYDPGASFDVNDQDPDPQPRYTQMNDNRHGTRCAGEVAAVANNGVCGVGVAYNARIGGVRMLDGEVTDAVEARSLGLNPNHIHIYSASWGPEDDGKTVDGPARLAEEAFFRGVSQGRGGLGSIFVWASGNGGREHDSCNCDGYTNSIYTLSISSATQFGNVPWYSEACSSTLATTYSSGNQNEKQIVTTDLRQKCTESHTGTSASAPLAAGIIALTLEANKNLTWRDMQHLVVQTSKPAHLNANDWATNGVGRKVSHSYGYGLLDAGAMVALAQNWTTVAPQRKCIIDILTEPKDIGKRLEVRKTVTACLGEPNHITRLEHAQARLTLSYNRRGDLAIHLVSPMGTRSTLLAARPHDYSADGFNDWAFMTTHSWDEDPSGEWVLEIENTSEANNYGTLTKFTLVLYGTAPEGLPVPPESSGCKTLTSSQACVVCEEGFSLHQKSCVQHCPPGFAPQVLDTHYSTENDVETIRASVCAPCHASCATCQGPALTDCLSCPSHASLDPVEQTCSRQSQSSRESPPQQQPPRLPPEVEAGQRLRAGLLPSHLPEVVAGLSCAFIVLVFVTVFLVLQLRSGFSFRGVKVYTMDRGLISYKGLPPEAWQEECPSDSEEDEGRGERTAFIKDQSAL
# PROTOCOL DETAILS: furin cleavage Z-score vs untreated control; higher = more cleavage, active = 3.5 or more, inactive = 1 or less, 8 variable residues between constant flanks
# STATED CONDITIONS: 15 min
Some of the results follow. The hit rate among all sequences tested is not known here.
Please reply with one of these outcomes: active, inactive

Task: Give the logged outcome of this assay for the following sequence: CACINGVCWTAGNASASA [HC697]
Result: inactive

Task: Give the logged outcome of this assay for the following sequence: CADTMEECSQAGNASASA [HC1818]
Result: inactive

Task: Give the logged outcome of this assay for the following sequence: CALGLLQTASAGNASASA [HC1027]
Result: inactive

Task: Give the logged outcome of this assay for the following sequence: CATAHRIKRAAGNASASA [FS-383]
Result: active

Task: Give the logged outcome of this assay for the following sequence: CATTPNSGSWAGNASASA [HC58]
Result: inactive

Task: Give the logged outcome of this assay for the following sequence: CAEVVCHRPSAGNASASA [HC2350]
Result: inactive

Task: Give the logged outcome of this assay for the following sequence: CALYFQSGTVAGNASASA [TV3]
Result: inactive

Task: Give the logged outcome of this assay for the following sequence: CASVFLVGQLAGNASASA [HC302]
Result: inactive

Task: Give the logged outcome of this assay for the following sequence: CASVPCSAHLAGNASASA [HC2490]
Result: inactive

Task: Give the logged outcome of this assay for the following sequence: CARHLREKRFAGNASASA [FS-706]
Result: active

Task: Give the logged outcome of this assay for the following sequence: CAERKRIKRAAGNASASA [FS-650]
Result: active

Task: Give the logged outcome of this assay for the following sequence: CADCEVVTSTAGNASASA [HC2300]
Result: inactive

Task: Give the logged outcome of this assay for the following sequence: CAPIDTTIMAAGNASASA [HC1437]
Result: inactive

Task: Give the logged outcome of this assay for the following sequence: CASKPCSAHLAGNASASA [HC2494]
Result: inactive

Data origin, for the record: the supplement of paper PMC3545927
